Tested on: P. falciparum K14 (CQ-resistant)
Assay: In vitro antiplasmodial activity, 3H-hypoxanthine incorporation, strain K14
Assay type: cell-based
Conditions: Plasmodium falciparum, read-out: Antiplasmodial activity, IC50, K14
reported property: pIC50
Lab note — pIC50 values are minus log10 of concentrations in M.

Which pIC50 is reported for this compound? CCN(CC)CCCC(C)Nc1ccnc2cc(Cl)ccc12 (stereo not shown) 6.99

###

Experiment: Cytotoxicity, MTT, MRC5 cells
Assay type: cell-based
Details: human, MRC-5 cells, concentration inducing 50% of cell growth arrest, five days
reported property: CC50 at 5 days (µM)
Report the value in µM with no unit label.

Here is how some compounds turned out for CC50 at 5 days.
Consider the compound shown here: CCN(CC)Cc1ccc(-c2ccc(CNc3ccnc4cc(Cl)ccc34)cc2)cc1 [Compound 4] What is its recorded CC50 at 5 days? 2.6

State the recorded CC50 at 5 days for this entry: CCN(CC)Cc1ccc(CNc2ccnc3cc(Cl)ccc23)cc1 [Compound 3] 13

Entry under review: CCN(CC)Cc1ccccc1CNc1ccnc2cc(Cl)ccc12 [Compound 1] . Reported CC50 at 5 days? 26.4

***
Looking for the measured CC50 at 5 days of CCN(CC)Cc1cccc(CNc2ccnc3cc(Cl)ccc23)c1 [Compound 2] , can you help? 20.3

###

System: P. falciparum K14 (CQ-resistant)
Experiment: In vitro antiplasmodial activity, 3H-hypoxanthine incorporation, strain K14
Type: cell-based
Settings: Plasmodium falciparum; laboratory B (Paris); IC50 ± SD; read-out: Antiplasmodial activity, IC50, K14
# maps each entry to its IC50
Only the number, expressed in nM, is required.

Recorded IC50 for CCN(CC)Cc1ccccc1CNc1ccnc2cc(Cl)ccc12 , please? 13.5

So what does the record say about IC50 for CCN(CC)Cc1cccc(CNc2ccnc3cc(Cl)ccc23)c1 ? 23.6

Item CCN(CC)CC1=C(CNc2ccnc3cc(Cl)ccc23)CC=CC1 has what recorded IC50? 18.7

---
Dear colleague, I am looking for the recorded IC50 of the following molecule: CCN(CC)Cc1ccc(CNc2ccnc3cc(Cl)ccc23)cc1 33

###

Assay: In vitro microsomal metabolic stability
Details: human, microsomes, pH 7.4, NADPH-dep. t1/2, human liver microsomes, [Compd] = 1 μM, [protein] = 0.3 mg/mL, with NADPH
reported property: half-life at 1 μM (h)
Reply with just the number (in h).

Reported half-life at 1 μM, compound CCN(CC)CCCC(C)Nc1ccnc2cc(Cl)ccc12 (stereo not shown) : ____ 2.22

###

Test system: P. falciparum 3D7 (CQ-sensitive)
Assay: In vitro antiplasmodial activity, 3H-hypoxanthine incorporation, strain 3D7
Assay type: cell-based
Conditions: Plasmodium falciparum, 3D7, read-out: Antiplasmodial activity, IC50, 3D7, laboratory A (Marseille), 5% CO2, 10% O2, 85% N2; IC50 ± SD
reported property: pIC50
Reminder that pIC50 is minus the log10 of a molar concentration.

Entry under review: CCN(CC)CCCC(C)Nc1ccnc2cc(Cl)ccc12 (stereo not shown) . Reported pIC50? 7.75

###

Tested on: P. falciparum K1 (CQ-resistant)
Experiment: In vitro antiplasmodial activity, 3H-hypoxanthine incorporation, strain K1
Assay type: cell-based
Settings: Plasmodium falciparum, K1, laboratory B (Paris), candle jar ~17% O2, 3% CO2, 80% N2; IC50 ± SD; read-out: Antiplasmodial activity, IC50, K1
reported property: pIC50
Would you please state pIC50, meaning minus log10 of the concentration in mol/L, as a bare number?

Need pIC50 of CCN(CC)Cc1cc(Nc2ccnc3cc(Cl)ccc23)ccc1O [AQ, amodiaquine, reference compound] , thanks. 8.02

Further cases:
Quick one: pIC50 for CCN(CC)Cc1cccc(CNc2ccnc3cc(Cl)ccc23)c1 [Compound 2] ? 7.92

Request the reported pIC50 associated with CCN(CC)Cc1ccc(-c2ccc(CNc3ccnc4cc(Cl)ccc34)cc2)cc1 [Compound 4] 7.93

Fill in the blank: the reported pIC50 of CCN(CC)Cc1ccccc1CNc1ccnc2cc(Cl)ccc12 [Compound 1] is ____. 7.84

For the compound CCN(CC)Cc1ccc(CNc2ccnc3cc(Cl)ccc23)cc1 [Compound 3] , what pIC50 is on record? 7.91

Value lookup for pIC50; key = CCN(CC)CC1=C(CNc2ccnc3cc(Cl)ccc23)CC=CC1 [Compound 5] 7.69

###

Each entry below lists one item and its recorded IC50 value.
System: P. falciparum 3D7 (CQ-sensitive)
Assay: In vitro antiplasmodial activity, 3H-hypoxanthine incorporation, strain 3D7
Format: cell-based
Settings: Plasmodium falciparum, 3D7, laboratory A (Marseille), 5% CO2, 10% O2, 85% N2; IC50 ± SD; read-out: Antiplasmodial activity, IC50, 3D7

Sample records with IC50:
Tell me the measured IC50 of CCN(CC)Cc1cc(Nc2ccnc3cc(Cl)ccc23)ccc1O [AQ, amodiaquine, reference compound] , please. 24.6 nM

Which value of IC50 has been reported for CCN(CC)Cc1ccc(CNc2ccnc3cc(Cl)ccc23)cc1 [Compound 3] in the records? 17.3 nM

Entry CCN(CC)Cc1cccc(CNc2ccnc3cc(Cl)ccc23)c1 [Compound 2] has what IC50? 18.4 nM

// query IC50 value for entry CCN(CC)Cc1ccccc1CNc1ccnc2cc(Cl)ccc12 [Compound 1] 13.5 nM

Then this compound:
Query: IC50; subject: CCN(CC)Cc1ccc(-c2ccc(CNc3ccnc4cc(Cl)ccc34)cc2)cc1 [Compound 4] 15.2 nM

###

// values below are reported half-life at 1 μM
Assay: In vitro microsomal metabolic stability
Conditions: human, human liver microsomes, pH 7.4, NADPH-dep. t1/2, human liver microsomes, [Compd] = 1 μM, [protein] = 0.3 mg/mL, with NADPH
Field: numeric (min). Do not append units.

Worked set:
Find the recorded half-life at 1 μM belonging to CCN(CC)Cc1cccc(CNc2ccnc3cc(Cl)ccc23)c1 and report it. 41.1

Any idea what its half-life at 1 μM is? The compound is CCN(CC)Cc1ccc(CNc2ccnc3cc(Cl)ccc23)cc1 45.3

Next item in the queue.
// query half-life at 1 μM value for entry CCN(CC)Cc1ccccc1CNc1ccnc2cc(Cl)ccc12 50.9

###

Test: in vitro
Conditions: human, microsomes, pH 7.4, NADPH-dep. t1/2
reported property: half-life at 1 μM (min)
// note: answer is a bare numeric in min

Requested read-out: half-life at 1 μM. Entry: CCN(CC)Cc1cc(Nc2ccnc3cc(Cl)ccc23)ccc1O [AQ, amodiaquine, reference compound] 5.4

###

Tested on: P. falciparum F32 (CQ-sensitive)
Experiment: In vitro antiplasmodial activity, 3H-hypoxanthine incorporation, strain F32
Format: cell-based
Details: Plasmodium falciparum, F32; laboratory B (Paris); IC50 ± SD; read-out: Antiplasmodial activity, IC50, F32
reported property: pIC50
Reminder that pIC50 is minus the log10 of a molar concentration.

Record request: pIC50 value, item CCN(CC)Cc1ccc(-c2ccc(CNc3ccnc4cc(Cl)ccc34)cc2)cc1 7.77

Continuing:
Sample CCN(CC)Cc1ccc(CNc2ccnc3cc(Cl)ccc23)cc1 — what was its pIC50? 7.61

What does the record list as pIC50 for CCN(CC)CC1=C(CNc2ccnc3cc(Cl)ccc23)CC=CC1 ? 7.60

Consider the compound shown here: CCN(CC)Cc1cccc(CNc2ccnc3cc(Cl)ccc23)c1 What is its recorded pIC50? 7.83

Looking for the measured pIC50 of CCN(CC)Cc1ccccc1CNc1ccnc2cc(Cl)ccc12 , can you help? 7.52

###

Documented microsomal CLint at 1 μM across a set of compounds
Experiment: In vitro microsomal metabolic stability
Settings: human, human liver microsomes, pH 7.4
Entry rule: numbers only, all in µL/min/mg.

Quick check: microsomal CLint at 1 μM of CCN(CC)Cc1cccc(CNc2ccnc3cc(Cl)ccc23)c1 [Compound 2] ? 56.2

###

Assay: In vitro microsomal metabolic stability
Conditions: human, human liver microsomes, pH 7.4
reported property: microsomal CLint at 1 μM (µL/min/mg)
Give just the number in µL/min/mg; leave the unit off.

Recorded microsomal CLint at 1 μM, per entry:
// query microsomal CLint at 1 μM value for entry CCN(CC)Cc1ccc(-c2ccc(CNc3ccnc4cc(Cl)ccc34)cc2)cc1 [Compound 4] 466

Item CCN(CC)Cc1ccccc1CNc1ccnc2cc(Cl)ccc12 [Compound 1] has what recorded microsomal CLint at 1 μM? 45.6

Further cases:
Any idea what microsomal CLint at 1 μM was measured for CCN(CC)Cc1ccc(CNc2ccnc3cc(Cl)ccc23)cc1 [Compound 3] ? 51.1
